# Test system: Enterococcus sp.
# Assay Summary: In vitro antibacterial evaluation: minimum inhibitory concentration (MIC), broth dilution method
# Assay type: cell-based
# Conditions Used: Enterococcus faecalis (GC 2242); 18 hours at 35° C.
# From the text: […]
Value Type: MIC Enterococcus faecalis (GC 2242) (µg/mL)
Output spec: scalar in µg/mL, unitless text.

Recorded MIC Enterococcus faecalis (GC 2242), per entry:
{"Compound": "CC(c1ccccc1)C1NC(=O)CNC(=O)C(CO)NC(=O)C(C(O)C2CNC(=N)N2C2OC(CO)C(O)C(O)C2O)NC(=O)C(C(O)C2CNC(=N)N2)NC(=O)C(Cc2ccc(OC3OC(CO)C(OC4OC5COC6(CCCCC6)OC5C(O)C4O)C(O)C3O)cc2)NC1=O (stereo not shown) [Example 203]", "Readout Units": "µg/mL", "MIC Enterococcus faecalis (GC 2242)": 4}
{"Compound": "CC(c1ccccc1)C1NC(=O)CNC(=O)C(CO)NC(=O)C(CC2CNC(=N)N2C2OC(CO)C(O)C(O)C2O)NC(=O)C(CC2CNC(=N)N2)NC(=O)C(Cc2ccc(OC3OC(CO)C(OC4OC(COCc5ccc(OCc6ccccc6)cc5)C(O)C(O)C4O)C(O)C3O)cc2)NC1=O (stereo not shown) [Example 246]", "Readout Units": "µg/mL", "MIC Enterococcus faecalis (GC 2242)": 16}
{"Compound": "N=C1NCC(C(O)C2NC(=O)C(Cc3ccc(OC4OC(CO)C(OC5OC6COC7(OC6C(O)C5O)C5CC6CC(C5)CC7C6)C(O)C4O)cc3)NC(=O)C(Cc3ccccc3)NC(=O)CNC(=O)C(CO)NC(=O)C(C(O)C3CNC(=N)N3C3OC(CO)C(O)C(O)C3O)NC2=O)N1 (stereo not shown) [Example 220]", "Readout Units": "µg/mL", "MIC Enterococcus faecalis (GC 2242)": 1}
{"Compound": "CC(c1ccccc1)C1NC(=O)CNC(=O)C(CO)NC(=O)C(C(O)C2CNC(=N)N2C2OC(CO)C(O)C(O)C2O)NC(=O)C(C(O)C2CNC(=N)N2)NC(=O)C(Cc2ccc(OC3OC(CO)C(OC4OC(CO)C(OCC=Cc5ccc(N(C)C)cc5)C(O)C4O)C(O)C3O)cc2)NC1=O (stereo not shown) [Example 243a]", "Readout Units": "µg/mL", "MIC Enterococcus faecalis (GC 2242)": 32}
{"Compound": "CC(c1ccc(Cl)cc1)C1NC(=O)CNC(=O)C(CO)NC(=O)C(C(O)C2CNC(=N)N2C2OC(CO)C(O)C(O)C2O)NC(=O)C(C(O)C2CNC(=N)N2)NC(=O)C(Cc2ccc(OC3OC(CO)C(OC4OC5COC(c6ccccc6)OC5C(O)C4O)C(O)C3O)cc2)NC1=O (stereo not shown) [Example 195]", "Readout Units": "µg/mL", "MIC Enterococcus faecalis (GC 2242)": 0.5}

Lab book: MIC Enterococcus faecalis (GC 2242) of CC(c1ccccc1)C1NC(=O)CNC(=O)C(CO)NC(=O)C(C(O)C2CNC(=N)N2C2OC(CO)C(O)C(O)C2O)NC(=O)C(C(O)C2CNC(=N)N2)NC(=O)C(Cc2ccc(OC3OC(CO)C(OC4OC5COC6(CCSCC6)OC5C(O)C4O)C(O)C3O)cc2)NC1=O (stereo not shown) [Example 217] noted as 16

Lab book: MIC Enterococcus faecalis (GC 2242) of CC(c1ccccc1)C1NC(=O)CNC(=O)C(CO)NC(=O)C(C(O)C2CNC(=N)N2C2OC(CO)C(O)C(O)C2O)NC(=O)C(C(O)C2CNC(=N)N2)NC(=O)C(Cc2ccc(OC3OC(CO)C(OC4OC(CO)C(O)C(OCc5ccc(OCc6ccccc6)cc5)C4O)C(O)C3O)cc2)NC1=O (stereo not shown) [Example 231c] noted as 4

Lab book: MIC Enterococcus faecalis (GC 2242) of CC(c1ccccc1)C1NC(=O)CNC(=O)C(CO)NC(=O)C(CC2CNC(=N)N2C2OC(CO)C(O)C(O)C2O)NC(=O)C(CC2CNC(=N)N2)NC(=O)C(Cc2ccc(OC3OC(CO)C(OC4OC5COC(c6ccc(OCc7ccccc7)cc6)OC5C(O)C4O)C(O)C3O)cc2)NC1=O (stereo not shown) [Example 191] noted as 8

The measured values listed here are drawn from patent US8247211B2.
